# ASSAY_PROCEDURE: Solubility in PBS
# Type: physicochemical
# Procedure: After ultracentrifugation of the PBS solution, the supernatant was analyzed by HPLC and compared to an HPLC injection 50 μM peptide DMSO solution. Solubility was determined by: [(Area of PBS peak)/(Area of DMSO peak)]*50 uM.
# Solubility values compiled below
OBSERVABLE: Solubility (µM)

[
  {
    "COMPOUND": "CC(=O)N1CCC[C@]12CC=CCCCC1(CCCC=CCCCOC(=O)N3CC[C@@](C(=O)N[C@@H](Cc4ccccc4C#N)C(=O)N[C@@H](Cc4csc5ccccc45)C(=O)N[C@@H](CCC(N)=O)C(N)=O)(C3)NC(=O)[C@H](CC(C)C)NC(=O)[C@H](Cc3ccccc3)NC(=O)[C@H](C)NC(=O)[C@H](C)NC(=O)[C@H](CC(=O)O)NC(=O)[C@H](CC(=O)O)NC1=O)NC(=O)[C@H](CC(C)(C)C)NC(=O)[C@H](CC(=O)O)NC2=O (stereo partly drawn) [I-1203]",
    "RECORDED_MEASUREMENT": 50
  },
  {
    "COMPOUND": "CC[C@H](C)[C@@H]1NC(=O)[C@H](CC(=O)O)NC(=O)[C@]2(CC=CCCCC3(CCCC=CCCCCCC[C@@](C)(C(=O)N[C@@H](Cc4ccccc4)C(=O)N[C@@H](Cc4ccccc4)C(=O)N[C@@H](CCC(N)=O)C(N)=O)NC(=O)[C@H](CCC(N)=O)NC(=O)[C@H](Cc4csc5ccccc45)NC(=O)[C@H](C)NC(=O)[C@H](C)NC(=O)[C@H](CCC(=O)O)NC(=O)[C@H](CC(=O)O)NC3=O)NC1=O)CCCN2C(C)=O (stereo partly drawn) [I-585]",
    "RECORDED_MEASUREMENT": 50
  },
  {
    "COMPOUND": "CC(=O)N1CCC[C@]12CC=CCCCC1(CCCC=CCCCCCC[C@@](C)(C(=O)N[C@@H](Cc3ccccc3)C(=O)N[C@@H](Cc3csc4ccccc34)C(=O)N[C@H](CO)C(N)=O)NC(=O)[C@H](CCC(N)=O)NC(=O)[C@H](Cc3ccccc3)NC(=O)[C@H](C)NC(=O)[C@H](C)NC(=O)[C@H](CCC(=O)O)NC(=O)[C@H](CC(=O)O)NC1=O)NC(=O)[C@H](C)NC(=O)[C@H](CC(=O)O)NC2=O (stereo partly drawn) [I-493]",
    "RECORDED_MEASUREMENT": 50
  }
]

----------
# TARGET: beta-catenin/TCF4 engagement (Homo sapiens, UniProt P35222)
# Construct: expressed in transfected cells; host or cells: HEK293
# Sequence (P35222 whole entry): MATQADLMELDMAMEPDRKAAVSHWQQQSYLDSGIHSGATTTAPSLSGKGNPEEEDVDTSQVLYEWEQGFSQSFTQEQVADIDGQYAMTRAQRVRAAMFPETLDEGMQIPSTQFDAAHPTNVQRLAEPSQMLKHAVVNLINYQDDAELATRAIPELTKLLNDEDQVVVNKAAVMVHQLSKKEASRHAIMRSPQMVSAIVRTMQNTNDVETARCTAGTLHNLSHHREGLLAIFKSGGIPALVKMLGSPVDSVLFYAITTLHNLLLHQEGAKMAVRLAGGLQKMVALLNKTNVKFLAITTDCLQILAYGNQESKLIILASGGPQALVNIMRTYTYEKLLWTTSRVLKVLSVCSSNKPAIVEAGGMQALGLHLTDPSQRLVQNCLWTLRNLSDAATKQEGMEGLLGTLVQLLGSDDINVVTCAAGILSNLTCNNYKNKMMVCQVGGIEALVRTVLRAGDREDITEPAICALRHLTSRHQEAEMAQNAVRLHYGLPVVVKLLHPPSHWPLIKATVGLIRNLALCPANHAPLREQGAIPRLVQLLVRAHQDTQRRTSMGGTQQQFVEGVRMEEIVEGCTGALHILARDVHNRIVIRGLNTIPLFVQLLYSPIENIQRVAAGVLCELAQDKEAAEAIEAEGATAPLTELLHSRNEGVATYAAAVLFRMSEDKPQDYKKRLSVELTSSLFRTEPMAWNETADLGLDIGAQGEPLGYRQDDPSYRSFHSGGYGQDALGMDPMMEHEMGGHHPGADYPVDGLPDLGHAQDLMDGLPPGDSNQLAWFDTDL
# ASSAY_PROCEDURE: Nano-BRET target engagement assay (B-cat-Halo & TCF4-Luc in HEK293 cells)
# Assay type: cell-based
# SETTINGS: read-out: NanoBRET Abs IC50
# IC50 values compiled below

[
  {
    "COMPOUND": "CC(=O)N1CCC[C@]12CC=CCCCC1(CCCC=CCCCOC(=O)N3CC[C@@](C(=O)N[C@@H](Cc4ccsc4)C(=O)N[C@@H](Cc4csc5ccccc45)C(=O)N[C@@H](CC(N)=O)C(N)=O)(C3)NC(=O)[C@H](CC(N)=O)NC(=O)[C@H](Cc3ccccc3)NC(=O)[C@H](C)NC(=O)[C@H](C)NC(=O)[C@H](CC(=O)O)NC(=O)[C@H](CC(=O)O)NC1=O)NC(=O)[C@H](CC(C)(C)C)NC(=O)[C@H](CC(=O)O)NC2=O (some centres unmarked)",
    "RESULT_UNIT": "µM",
    "IC50": 13.7
  },
  {
    "COMPOUND": "CC(=O)N1CCC[C@]12CC=CCCCC1(CCCC=CCCCOC(=O)N3CC[C@@](C(=O)N[C@@H](Cc4ccccc4Cl)C(=O)N[C@@H](Cc4csc5ccccc45)C(=O)N[C@@H](CO)C(N)=O)(C3)NC(=O)[C@H](CC(C)C)NC(=O)[C@H](Cc3ccccc3)NC(=O)[C@H](C)NC(=O)[C@H](CO)NC(=O)[C@H](Cc3cccc(C(=O)O)c3)NC(=O)[C@H](CC(=O)O)NC1=O)NC(=O)[C@H](CC(C)(C)C)NC(=O)[C@H](CC(=O)O)NC2=O (some centres unmarked) [I-1901]",
    "RESULT_UNIT": "µM",
    "IC50": 4.9
  },
  {
    "COMPOUND": "COc1cccc(C[C@@H]2NC(=O)[C@H](C)NC(=O)[C@H](C)NC(=O)[C@H](CC(=O)O)NC(=O)[C@H](CC(=O)O)NC(=O)C3(CCCC=CCCCOC(=O)N4CC[C@@](C(=O)N[C@@H](Cc5ccccc5Cl)C(=O)N[C@@H](Cc5csc6ccccc56)C(=O)N[C@@H](CCC(N)=O)C(N)=O)(C4)NC(=O)[C@H](CO)NC2=O)CCCC=CC[C@]2(CCCN2C(C)=O)C(=O)N[C@@H](CC(=O)O)C(=O)N[C@@H](CC2CCCCC2)C(=O)N3)c1 (some centres unmarked)",
    "RESULT_UNIT": "µM",
    "IC50": 29.5
  },
  {
    "COMPOUND": "CC(=O)N1CCC[C@]12CC=CCCCC1(CCCC=CCCCOC(=O)N3CC[C@@](C(=O)N[C@@H](Cc4ccsc4)C(=O)N[C@@H](Cc4csc5ccccc45)C(=O)N[C@@H](CCC(N)=O)C(N)=O)(C3)NC(=O)[C@H](CC(C)C)NC(=O)[C@H](Cc3ccccc3)NC(=O)[C@H](C)NC(=O)[C@H](C)NC(=O)[C@H](CCn3cc(CC(=O)O)nn3)NC(=O)[C@H](CC(=O)O)NC1=O)NC(=O)[C@H](CC(C)(C)C)NC(=O)[C@H](CC(=O)O)NC2=O (some centres unmarked)",
    "RESULT_UNIT": "µM",
    "IC50": 11.7
  },
  {
    "COMPOUND": "COc1ccccc1C[C@H](NC(=O)[C@]12CCN(C1)C(=O)OCCCC=CCCCC1(CCCC=CC[C@]3(CCCN3C(C)=O)C(=O)N[C@@H](CC(=O)O)C(=O)N[C@@H](CC3CCCCC3)C(=O)N1)C(=O)N[C@@H](CC(=O)O)C(=O)N[C@@H](CC(=O)O)C(=O)N[C@@H](C)C(=O)N[C@@H](C)C(=O)N[C@@H](Cc1ccccc1)C(=O)N[C@@H](CO)C(=O)N2)C(=O)N[C@@H](Cc1csc2ccccc12)C(=O)N[C@@H](CO)C(N)=O (some centres unmarked)",
    "RESULT_UNIT": "µM",
    "IC50": 17.7
  }
]
